MEASUREMENT_TARGET: hKOR (Homo sapiens, UniProt P41145)
ASSAY_DETAILS: Competition binding, [3H]U69,593, hKOR-CHO membranes
CONDITION_SUMMARY: MOR Ki/KOR Ki
Where a SMILES comes first, the peptide text is derived from it. [ ]: non-standard residue; d: D form. The star is where a group is joined. dPhe(3-F) = N[C@H](Cc1cccc(F)c1)C(=O)O; For = O=C*
PROPERTY_LABEL: Selectivity (MOR Ki/KOR Ki)

{"columns": ["MOLECULE", "RESULT"],
 "data": [
  ["O=C1N[C@H](Cc2cccc(F)c2)C(=O)N[C@@H](Cc2ccccc2)C(=O)N2CCC[C@@H]2C(=O)N[C@H]1Cc1ccccc1 [Analog 6, [D-Phe(m-F)^4]CJ-15,208] (cyclo(F[dP]F[dPhe(3-F)]))", 5],
  ["O=Cn1cc(C[C@H]2NC(=O)[C@H](Cc3ccccc3)NC(=O)[C@H]3CCCN3C(=O)[C@H](Cc3ccccc3)NC2=O)c2ccccc21 [Analog 3, [D-Trp(formamide)]CJ-15,208] (cyclo(F[dP]F[dW](For)))", 41],
  ["O=C1N[C@H](Cc2cc(F)c(F)cc2F)C(=O)N[C@@H](Cc2ccccc2)C(=O)N2CCC[C@@H]2C(=O)N[C@H]1Cc1ccccc1", 10]
]}

---

# Ki listing for each entry below
MEASUREMENT_TARGET: hKOR (Homo sapiens)
ASSAY_DETAILS: Competition binding, [3H]U69,593, hKOR-CHO membranes
CONDITION_SUMMARY: [3H]U69,593, human KOR; ± S.E.M., three independent experiments; read-out: KOR Ki
Where a SMILES comes first, the peptide text is derived from it. [ ]: non-standard residue; d: D form. dPhe(4-NO2) = N[C@H](Cc1ccc([N+](=O)[O-])cc1)C(=O)O; dPhe(3,4-F2) = N[C@H](Cc1ccc(F)c(F)c1)C(=O)O; dPhe(3-Me) = Cc1cccc(C[C@@H](N)C(=O)O)c1

{"columns": ["MOLECULE", "Ki"],
 "data": [
  ["O=C1N[C@H](Cc2ccc([N+](=O)[O-])cc2)C(=O)N[C@@H](Cc2ccccc2)C(=O)N2CCC[C@@H]2C(=O)N[C@H]1Cc1ccccc1 [Analog 16] (cyclo(F[dP]F[dPhe(4-NO2)]))", "0.007 µM"],
  ["O=C1N[C@H](Cc2ccccc2)C(=O)N[C@@H](Cc2ccccc2)C(=O)N2CCC[C@@H]2C(=O)N[C@H]1Cc1ccccc1 [Analog 4, cyclo[Phe-D-Pro-Phe-D-Phe]] (cyclo(F[dP]F[dF]))", "0.024 µM"],
  ["Cc1cccc(C[C@H]2NC(=O)[C@H](Cc3ccccc3)NC(=O)[C@H]3CCCN3C(=O)[C@H](Cc3ccccc3)NC2=O)c1 [Analog 14, [D-Phe(m-Me)^4]CJ-15,208] (cyclo(F[dP]F[dPhe(3-Me)]))", "0.026 µM"],
  ["O=C1N[C@H](Cc2cc(F)c(F)cc2F)C(=O)N[C@@H](Cc2ccccc2)C(=O)N2CCC[C@@H]2C(=O)N[C@H]1Cc1ccccc1", "0.027 µM"],
  ["O=C1N[C@H](Cc2ccc(F)c(F)c2)C(=O)N[C@@H](Cc2ccccc2)C(=O)N2CCC[C@@H]2C(=O)N[C@H]1Cc1ccccc1 [Analog 8] (cyclo(F[dP]F[dPhe(3,4-F2)]))", "0.0066 µM"]
]}
